molecular target: Poly [ADP-ribose] polymerase 2 (Homo sapiens, UniProt Q9UGN5); assay: Inhibition of recombinant human PARP2 using NAD+ as substrate incubated for 1 hr by ELISA
Sequence (Q9UGN5 whole entry): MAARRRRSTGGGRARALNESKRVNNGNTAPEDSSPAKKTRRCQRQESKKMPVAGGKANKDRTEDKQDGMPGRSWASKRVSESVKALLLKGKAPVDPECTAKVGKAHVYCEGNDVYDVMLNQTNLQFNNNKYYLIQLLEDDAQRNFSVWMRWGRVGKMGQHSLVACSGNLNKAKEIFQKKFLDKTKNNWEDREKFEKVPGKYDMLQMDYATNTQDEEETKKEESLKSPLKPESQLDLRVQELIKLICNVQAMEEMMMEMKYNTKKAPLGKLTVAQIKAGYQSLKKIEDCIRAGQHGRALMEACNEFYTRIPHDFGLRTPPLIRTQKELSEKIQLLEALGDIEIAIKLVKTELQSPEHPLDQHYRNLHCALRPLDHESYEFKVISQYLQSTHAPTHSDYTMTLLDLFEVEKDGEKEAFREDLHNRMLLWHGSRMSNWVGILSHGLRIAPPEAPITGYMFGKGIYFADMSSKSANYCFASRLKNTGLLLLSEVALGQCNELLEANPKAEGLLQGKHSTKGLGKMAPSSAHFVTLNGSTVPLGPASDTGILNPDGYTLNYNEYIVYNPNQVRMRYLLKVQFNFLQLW
pIC50: −log10 of the molar value.
Binary classification by pIC50, with 8 as an inclusive lower bound for yes; all other cases are no.

Example results:
Given the entry CCCN1CCN(C(=O)c2cc(Cn3c(=O)[nH]c(=O)c4ccccc43)ccc2F)C[C@@H]1CC , answer whether its pIC50 meets or surpasses 8.
no

Given the entry C[C@H]1CN(C(=O)c2cc(Cn3c(=O)[nH]c(=O)c4ccccc43)ccc2F)CCN1 , answer whether its pIC50 meets or surpasses 8.
no

Given the entry CC[C@@H]1CN(C(=O)c2cc(Cn3c(=O)[nH]c(=O)c4ccccc43)ccc2F)CCN1CC(F)(F)F , answer whether its pIC50 meets or surpasses 8.
yes

Continuing:
Given the entry CC[C@@H]1CN(C(=O)c2cc(Cn3c(=O)[nH]c(=O)c4ccccc43)ccc2F)CCN1C , answer whether its pIC50 meets or surpasses 8.
no

Given the entry CC(C)C(=O)N1CCN(C(=O)c2cc(Cn3c(=O)[nH]c(=O)c4ccccc43)ccc2F)C[C@H]1C , answer whether its pIC50 meets or surpasses 8.
yes

Given the entry C[C@@H]1CN(C(=O)c2cc(Cn3c(=O)[nH]c(=O)c4ccccc43)ccc2F)CCN1 , answer whether its pIC50 meets or surpasses 8.
no

Given the entry CC[C@H]1CN(C(=O)c2cc(Cn3c(=O)[nH]c(=O)c4ccccc43)ccc2F)CCN1CC(F)(F)F , answer whether its pIC50 meets or surpasses 8.
no

Given the entry C[C@@H]1CN(C(=O)c2cc(Cn3c(=O)[nH]c(=O)c4ccccc43)ccc2F)CCN1CC(F)(F)F , answer whether its pIC50 meets or surpasses 8.
yes

Given the entry C[C@@H]1CN(C(=O)c2cc(Cn3c(=O)[nH]c(=O)c4ccccc43)ccc2F)CCN1CC1CC1 , answer whether its pIC50 meets or surpasses 8.
yes

Attribution: ChEMBL document CHEMBL5053536
